Test system: Puccinia recondita f. sp. tritici
Experiment: Test B: wheat leaf rust, preventive spray on wheat seedlings
Type: in vivo
Settings: 192 h, 50 ppm, 100 = 100% disease control, 0 = no control, read-out: Test B disease control rating
pest or weed control at 50 ppm values for the molecules below.

Here is how some molecules turned out for pest or weed control at 50 ppm.
COc1cc(F)c(Nc2c(-c3ccc(F)cc3F)c(C)nn2C)c([N+](=O)[O-])c1 100%
Cc1nn(C)c(Nc2c(F)cccc2[N+](=O)[O-])c1-c1ccc(F)cc1F 100%
Cc1nn(C)c(Nc2c(F)cccc2[N+](=O)[O-])c1-c1ccc(F)cc1Cl 100%
CCc1nn(C)c(Nc2c(F)cccc2[N+](=O)[O-])c1-c1ccc(F)cc1Cl 100%
Cc1nn(C)c(Nc2ccc(F)cc2[N+](=O)[O-])c1-c1ccc(F)cc1Cl 99%
Cc1nn(C)c(Nc2c(Cl)cc(F)cc2[N+](=O)[O-])c1-c1ccc(F)cc1Cl 100%

Incoming: # lookup: pest or weed control at 50 ppm of Cc1nn(C)c(Nc2c(F)cccc2[N+](=O)[O-])c1-c1ccc(C#N)cc1Cl
Outgoing: 99%

Incoming: // next record COc1ccc(-c2c(C)nn(C)c2Nc2c(Cl)cc(F)cc2[N+](=O)[O-])c(Cl)c1
Outgoing: 100%
